# study-system: T1, crab-eating macaque CLDN-5 protein (crab-eating macaque, UniProt O00501 1-218 (human entry))
# T1 construct: Expressed on cells by retrovirus; also called cCLDN-5; MDCKII/cCLDN-5
# T1 chain: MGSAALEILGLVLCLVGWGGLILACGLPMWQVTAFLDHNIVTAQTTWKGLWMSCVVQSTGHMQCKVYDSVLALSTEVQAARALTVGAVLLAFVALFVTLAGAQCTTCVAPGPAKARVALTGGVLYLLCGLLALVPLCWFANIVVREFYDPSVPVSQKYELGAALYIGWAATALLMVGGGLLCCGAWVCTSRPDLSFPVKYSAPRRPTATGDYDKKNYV
# protocol-summary: FACS on CLDN-5-expressing cells, antibody 5 µg/mL

binder	binding result
rat anti-CLDN-5 antibody R20 (antibody, rat IgG2a, V domains shown, Hybridoma monoclonal; also called antibody L) VH: EVQLVESGGGLVQPGRSMKLSCAVSGFTFSDYYMAWVRQAPKKGLEWVASISYEGRNTYYGDSVKGRFTISRDNAKNTLYLQMNSLRSEDTATYYCARHPRRYFDFWGPGTMVTVSS VL: DIVMTQSPSSLAVSAGETVTINCKSSQSLLFSGDQENHLAWYQQKAGQSAKLLIYWASTRESGVPDRFIGSGSGADFTLTISSMQAEDRATYYCQQNYDIPYTFGAGTKLEL	binds
rat anti-CLDN-5 antibody R14 (antibody, rat IgG2a, V domains shown, Hybridoma monoclonal; also called antibody K) VH: QVTLKESGPGILQPSHTLSLTCSFSGFSLSTYGMGVSWIRQPSGKGLEWLASIWWNGRTYTNPSLMSRLTVSKDTSTNQAFLRVTSVETADTATYYCAHTPYDYSNLGWFTYWGQGTLVTVSS VL: DILMTQTPSSQAVSAGEKVTVSCKSSQSLLYSGDQKSYLAWYQQKPGQSPKLLIYLASTRKSGVPDRFIGSGSGTDFTLTISSVQAEDLADYYCQQHYTYPLTFGSGTKLEI	binds
mouse anti-CLDN-5 antibody M23 (antibody, mouse IgG2b, V domains shown, Hybridoma monoclonal; also called antibody C) VH: EVQLQQSGPVLVKPGPSVMISCKASGFTFTDYYMHWVKQSHGKSLEWIGLVYPYNGGTDYNQKFKGKATLTVDTSSSTAYMELNSLTSEDSAVYYCARCLYDGLYFYAMDYWGQGTSVTVSS VL: DIVMSQSPSSLAVSAGEKVTMTCKSSQSLLNSRARKNYLAWYQQKAGQSPKLLMYWASTRESGVPDRFTASGSGTDFTLTISSVQAEDLAVFYCKQSYNLPWTFGGGTKLEIKR	binds

// provenance: patent US20200148765A1
